Data provenance: patent US9273057B2

IC50 by entry:
MEASURED_TARGET: CK2A1 (CK2α/β) (Homo sapiens, UniProt P68400)
Sequence (P68400 whole entry, species assumed): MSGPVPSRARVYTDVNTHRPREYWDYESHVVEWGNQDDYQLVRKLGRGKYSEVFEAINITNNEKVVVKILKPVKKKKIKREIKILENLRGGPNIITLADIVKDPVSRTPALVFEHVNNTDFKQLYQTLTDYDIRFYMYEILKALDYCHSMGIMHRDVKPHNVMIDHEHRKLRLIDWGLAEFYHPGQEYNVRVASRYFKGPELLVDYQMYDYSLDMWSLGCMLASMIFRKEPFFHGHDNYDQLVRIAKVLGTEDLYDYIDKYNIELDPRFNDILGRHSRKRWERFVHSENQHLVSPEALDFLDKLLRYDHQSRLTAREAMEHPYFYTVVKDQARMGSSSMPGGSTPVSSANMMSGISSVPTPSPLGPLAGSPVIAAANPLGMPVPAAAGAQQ
Sequence (P67870 whole entry partner, species assumed): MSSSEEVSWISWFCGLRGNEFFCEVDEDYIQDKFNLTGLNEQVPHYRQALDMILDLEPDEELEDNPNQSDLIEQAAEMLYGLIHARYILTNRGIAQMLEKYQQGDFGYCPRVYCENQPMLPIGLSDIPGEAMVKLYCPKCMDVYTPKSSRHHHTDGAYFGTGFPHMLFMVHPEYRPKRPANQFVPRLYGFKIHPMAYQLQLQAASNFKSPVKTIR
MEASUREMENT_PROTOCOL: CK2 kinase assay, CK2A1 (CK2α/β)
Format: biochemical
ASSAY_SETUP: Table A; read-out: CK2A1 (CK2α/β) (IC50)

Reference set, count: 5
CC1CN(C2CCN(c3cc(C#N)cc(Nc4nc(NC5CC5)c5ncc(C#N)n5n4)c3Cl)CC2)CC(C)O1 (racemic) ... 4.09 nM
N#Cc1cc(Nc2nc(NC3CC3)c3ncc(C#N)n3n2)c(Cl)c(N2CCN(C(=O)Cn3ccnc3)CC2)c1 ... 0.53 nM
CCNC(=O)NCC1CN(c2cc(C#N)cc(Nc3nc(NC4CC4)c4ncc(C#N)n4n3)c2Cl)CCO1 (centres unmarked) ... 2.64 nM
CO[C@@H]1CN(c2cc(C#N)cc(Nc3nc(NC4CC4)c4ncc(C#N)n4n3)c2Cl)C[C@@H]1NS(C)(=O)=O ... 0.59 nM
COC(=O)N1CC2CN(c3cc(C#N)cc(Nc4nc(NC5CC5)c5ncc(C#N)n5n4)c3Cl)CC2C1 (centres unmarked) ... 3 nM

Task item: Return IC50 measured with CK2A1 (CK2α/β) (Homo sapiens, UniProt P68400) given this molecule: N#Cc1cc(NCCCO)c(Cl)c(Nc2nc(NC3CC3)c3ncc(C#N)n3n2)c1
Reply: 0.34 nM

Task item: Return IC50 measured with CK2A1 (CK2α/β) (Homo sapiens, UniProt P68400) given this molecule: CN1CC2(CCN(c3cc(C#N)cc(Nc4nc(NC5CC5)c5ncc(C#N)n5n4)c3Cl)CC2)C1
Reply: 1.8 nM

Task item: Return IC50 measured with CK2A1 (CK2α/β) (Homo sapiens, UniProt P68400) given this molecule: N#Cc1cc(Nc2nc(NC3CC3)c3ncc(C#N)n3n2)c(Cl)c(N2CCN(C3CN(C(=O)CN4CCOCC4)C3)CC2)c1
Reply: 2.03 nM

Task item: Return IC50 measured with CK2A1 (CK2α/β) (Homo sapiens, UniProt P68400) given this molecule: N#CCCN(Cc1cc(C#N)cc(Nc2nc(NC3CC3)c3ncc(C#N)n3n2)c1Cl)CC1CCCO1 (centres unmarked)
Reply: 1.55 nM

Task item: Return IC50 measured with CK2A1 (CK2α/β) (Homo sapiens, UniProt P68400) given this molecule: N#Cc1cc(Nc2nc(NC3CC3)c3ncc(C#N)n3n2)c(Cl)c(N2CCN(C3CN(C(=O)C4(N)CC4)C3)CC2)c1
Reply: 3.92 nM

Task item: Return IC50 measured with CK2A1 (CK2α/β) (Homo sapiens, UniProt P68400) given this molecule: CC(C)(C)N1CCN(Cc2cc(C#N)cc(Nc3nc(NC4CC4)c4ncc(C#N)n4n3)c2Cl)CC1
Reply: 1.7 nM

====

MEASURED_TARGET: CK2A1 (CK2α/β) (Homo sapiens, UniProt P68400)
MEASUREMENT_PROTOCOL: CK2 kinase assay, CK2A1 (CK2α/β)
Type: biochemical
ASSAY_SETUP: Table A; read-out: CK2A1 (CK2α/β) (IC50)
pIC50 by entry:
Lab note — pIC50 values are minus log10 of concentrations in M.

CC(=O)N[C@H]1CCN(Cc2cc(C#N)cc(Nc3nc(NC4CC4)c4ncc(C#N)n4n3)c2Cl)C1 [Example 473] ... 9.25

Task item: Recorded pIC50 of C[C@H](O)CN1CCC(c2cc(C#N)cc(Nc3nc(NC4CC4)c4ncc(C#N)n4n3)c2Cl)CC1 [Example 216] , please.
Reply: 8.99

Task item: Recorded pIC50 of CS(=O)(=O)CC(=O)N1CCN(c2cc(C#N)cc(Nc3nc(NC4CC4)c4ncc(C#N)n4n3)c2Cl)CC1 [Example 89] , please.
Reply: 8.54

Task item: Recorded pIC50 of COC(=O)N[C@H]1C[C@H](O)CN(c2cc(C#N)cc(Nc3nc(NC4CC4)c4ncc(C#N)n4n3)c2Cl)C1 (racemic) [Example 17] , please.
Reply: 9.23

Task item: Recorded pIC50 of N#Cc1cc(Nc2nc(NC3CC3)c3ncc(C#N)n3n2)c(Cl)c(N2CCN(CC(O)CF)CC2)c1 (racemic) [Example 66] , please.
Reply: 9.24

Task item: Recorded pIC50 of N#Cc1cc(Nc2nc(NC3CC3)c3ncc(C#N)n3n2)c(Cl)c(N2CC3(CCN(CC(O)CF)CC3)C2)c1 (racemic) [Example 807] , please.
Reply: 9.14

Task item: Recorded pIC50 of N#Cc1cc(Nc2nc(NC3CC3)c3ncc(C#N)n3n2)c(Cl)c(N2CCC3C(CCN3C[C@@H](O)CF)C2)c1 (some centres unmarked) [Example 448] , please.
Reply: 9.06

====

pIC50 by entry:
MEASURED_TARGET: CK2A1 (CK2α/β) (Homo sapiens)
MEASUREMENT_PROTOCOL: CK2 kinase assay, CK2A1 (CK2α/β)
Type: biochemical
ASSAY_SETUP: Table A; read-out: CK2A1 (CK2α/β) (IC50)
Lab note — pIC50 values are minus log10 of concentrations in M.

Task item: Return pIC50 measured with CK2A1 (CK2α/β) (Homo sapiens) given this molecule: N#Cc1cc(Nc2nc(NC3CC3)c3ncc(C#N)n3n2)c(Cl)c(N2CCN3CCOC[C@H]3C2)c1
Reply: 8.78

====

MEASURED_TARGET: CK2A1 (CK2α/β) (Homo sapiens)
MEASUREMENT_PROTOCOL: CK2 kinase assay, CK2A1 (CK2α/β)
Type: biochemical
ASSAY_SETUP: Table A; read-out: CK2A1 (CK2α/β) (IC50)
pIC50: −log10 of the molar value.
Label Satisfied when pIC50 is at or above 9; anything below gets Not satisfied.

COC(=O)N[C@H]1CCN(c2cc(C#N)cc(Nc3nc(NC4CC4)c4ncc(C#N)n4n3)c2Cl)C[C@H]1NC1(C)COC1 ... Not satisfied
CN1CCN(CCC(F)(F)c2cc(C#N)cc(Nc3nc(NC4CC4)c4ncc(C#N)n4n3)c2Cl)CC1 ... Satisfied
COC(=O)NC1CCN(c2cc(C#N)cc(Nc3nc(NC4CC4)c4ncc(C#N)n4n3)c2Cl)CC1(C)C (centres unmarked) ... Not satisfied
CCNc1nc(-n2cc([C@@H]3C[C@H]3CN(C)C)c3ccc(C#N)cc32)nn2c(C#N)cnc12 (single isomer, unassigned) ... Not satisfied
C[C@H](N)C(=O)N1CCC(c2cc(C#N)cc(Nc3nc(NC4CC4)c4ncc(C#N)n4n3)c2Cl)CC1 ... Satisfied

Task item: # bool: pIC50 of CCNc1nc(Nc2cc(C#N)cc(N3CC[C@@H](NC(=O)OC)[C@@H](N(C)C(C)C(N)=O)C3)c2Cl)nn2c(C#N)cnc12 (stereo in doubt) >= 9
Reply: Not satisfied

====

MEASURED_TARGET: CK2A1 (CK2α/β) (Homo sapiens)
MEASUREMENT_PROTOCOL: CK2 kinase assay, CK2A1 (CK2α/β)
Type: biochemical
ASSAY_SETUP: Table A; read-out: CK2A1 (CK2α/β) (IC50)
IC50 by entry:
Write the answer as a number in nM, unit excluded.

Reference set, count: 3
COC(=O)N[C@H]1CCN(c2cc(C#N)cc(Nc3nc(NC4CC4)c4ncc(C#N)n4n3)c2Cl)CC1NCC(C)(C)O (stereo in doubt) ... 2.7
N#Cc1cc(Nc2nc(NC3CC3)c3ncc(C#N)n3n2)c(Cl)c(N2CCN(CC3CCCCO3)CC2)c1 (stereo not shown) ... 1.39
CCNc1nc(Nc2cc(C#N)cc(C3CN(C(=O)CC#N)C3)c2Cl)nn2c(C#N)cnc12 ... 1.58

Please examine the following record next.
Task item: Return IC50 measured with CK2A1 (CK2α/β) (Homo sapiens) given this compound: N#Cc1cnc2c(NC3CC3)nc(Nc3cc(C(F)F)cc(N4CCN(C5CS(=O)(=O)C5)CC4)c3Cl)nn12
Reply: 0.58

====

MEASURED_TARGET: CK2A1 (CK2α/β) (Homo sapiens)
MEASUREMENT_PROTOCOL: CK2 kinase assay, CK2A1 (CK2α/β)
Format: biochemical
ASSAY_SETUP: Table A; read-out: CK2A1 (CK2α/β) (IC50)
pIC50: −log10 of the molar value.
Label true (1) when pIC50 is at or above 9; anything below gets false (0).

COC(=O)N[C@@H]1CCN(c2cc(C#N)cc(Nc3nc(NC4CC4)c4ncc(C#N)n4n3)c2Cl)C[C@H]1OC(=O)[C@H](C)N ... true (1)

Task item: # bool: pIC50 of N#Cc1cc(Nc2nc(NC3CC3)c3ncc(C#N)n3n2)c(F)c(N2CCN([C@@H]3CS(=O)(=O)C[C@H]3O)CC2)c1 (racemic) >= 9
Reply: false (0)

Task item: # bool: pIC50 of CCNc1nc(Nc2cc(C#N)cc(N3CC[C@@H](NC(=O)OCC)[C@H](O)C3)c2Cl)nn2c(C#N)cnc12 >= 9
Reply: true (1)
